Entries annotated with measured cell number change
method.summary: qHTS Assay for Lipid Storage Modulators in Drosophila S3 Cells;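 note: cells counted by Cell Tracker Red CMTPX staining in the red channel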
test.settings: BODIPY lipid droplet fluorescence, 18-24 h, cells fed with added oleic acid; measured here: cell count max response
Screen size: about 320,000 compounds; about 2,100 (0.66%) were called active. Roughly 53% stayed inconclusive and do not appear here. The full list was thinned out, with actives kept by preference.
A number alone suffices; assume %.

# annotated cases, reported cell number change shown
CSc1ccc(C2C(C(=O)c3ccco3)=C(O)C(=O)N2c2nnc(SC)s2)cc1 (configuration not stated)
-24.7
C/C(CC(=O)NC12CC3CC(CC(C3)C1)C2)=N\NC(=O)c1cnccn1
1.39
O=C(COc1nsnc1N1CCOCC1)Nc1ccc(Cl)cc1
-7.64
COc1ccccc1C(=O)Nc1ccc(Br)cc1C
6.15
Cc1c(CC(=O)N2CCC(C(N)=O)CC2)c(=O)oc2cc3c(cc12)CCC1(CCCCC1)O3
-23.7
CC1CCN(C(=O)c2cc(Cl)nc3ccccc23)CC1
-4.42

Task: Quick check: cell number change of Cc1c(Cc2ccccc2)c(=O)oc2cc(OCC(=O)N3CCC(C(N)=O)CC3)ccc12 ?
Result: 23.5

Task: Now this one: Cc1c(CC(=O)O)c(=O)oc2cc3c(cc12)CCC(C)(C)O3
Result: 4.46

Task: Now this one: CCSc1nnc(NC(=O)CSc2nnc(-c3c[nH]c4ccccc34)n2CC)s1
Result: 11.1

Task: Now this one: COc1ccc(NC(=O)Nc2ccc(C(=O)N3CCOCC3)cc2)cc1OC
Result: -17.3

Task: Now this one: N=C1C(=O)OCC1c1ccccc1NC(=O)c1ccc(F)cc1 (configuration not stated)
Result: -9.08

Task: Now this one: COC(=O)/C=C1\SC(=NC(=O)c2cccc(Cl)c2)NC1=O
Result: -23.4

Task: Now this one: O=C(c1c(F)cccc1F)N(C1CCCCC1)C1CCCCC1
Result: -23

Task: Now this one: O=C(NC(Cc1ccccc1)C(=O)O)/C(=C/c1ccco1)NC(=O)c1cccc([N+](=O)[O-])c1 (configuration not stated)
Result: -0.0963

Task: Now this one: Cc1cccc(NC(=O)NC(C)C(c2ccccc2)N2CCN(C)CC2)c1 (configuration not stated)
Result: -13.4

Task: Now this one: C/C(=N/NC(=O)c1ccc2nc[nH]c2c1)c1cccs1
Result: 9.11

Task: Now this one: CCN(Cc1ccncc1)C(=O)c1cc(COc2ccc(F)cc2F)on1
Result: -20.5

Task: Now this one: O=C(Cn1nc(Cc2cccnc2)c2ccccc2c1=O)Nc1cccnc1Cl
Result: 1.33

Task: Now this one: CC1(C)Cc2c(cnn2-c2ccc(F)cc2)C(NC(=O)c2ccoc2)C1 (configuration not stated)
Result: 6.57

Task: Now this one: Cc1ccc(CNC(=O)C(N=C2NS(=O)(=O)c3ccccc32)C(C)C)cc1 (configuration not stated)
Result: 10.7

Task: Now this one: O=C(CS(=O)(=O)Cc1ccccc1)NCc1ccco1
Result: -5.74

Task: Now this one: O=C(Nc1ccccc1)NC1CCN(Cc2c(F)cccc2Cl)CC1
Result: 4.31

Data provenance: PubChem BioAssay AID2685
